Here, each record is paired with measured IC50 data.
- Tested on: MDA-MB-231
- experiment_description: Antiinvasive activity in human MDA-MB-231 cells assessed as inhibition of EGF-induced cell invasion after 3.5 hrs
- Format: functional, cell-based
- measurement_setup: MDA-MB-231, 3.5 h

Study these solved cases before continuing.
>>> print(df.to_string())
                    structure_smiles_string  measured
0  CC1(C)[C@H](O)CC[C@@]2(C)[C@@H]3CC[C@](C)([C@@H](O)CO)C=C3C=C[C@H]12   > 10 µM
1  C[C@@]1(CO)C[C@H](O)C[C@@]2(C)[C@@H]3CC[C@](C)([C@@H](O)CO)C=C3CC[C@H]12   > 10 µM

--- query ---
Given item C[C@]1(CO)[C@H]2CCC3=C[C@@](C)([C@@H](O)CO)CC[C@H]3[C@]2(C)C[C@H](O)[C@H]1O , the value recorded as its IC50 is > 10 µM

====

- Tested on: MDA-MB-231
- experiment_description: Antiinvasive activity in human MDA-MB-231 cells assessed as inhibition of EGF-induced cell invasion after 3.5 hrs
- Format: functional, cell-based
- measurement_setup: MDA-MB-231, 3.5 h
pIC50: −log10 of the molar value.
measured_attribute: pIC50

                    structure_smiles_string  measured
0  CC1(C)[C@H](O)CC[C@@]2(C)[C@@H]3CC[C@](C)([C@H](O)CO)C=C3CC[C@H]12      5.46
1  Cc1ccc2c(c1)C(=O)C[C@@H]1[C@](C)(CO)CC(=O)C[C@@]21C      5.37
